Origin of values: the Human Domainome abundance scans (Beltran et al. 2025)

Recorded abundance fitness for the following variants
B1: Gamma-crystallin C, residues 4 to 79; numbered along this chain, P07315 (parent)
chain: ITFYEDRAFQGRSYETTTDCPNLQPYFSRCNSIRVESGCWMLYERPNYQGQQYLLRRGEYPDYQQWMGLSDSIRSC

variants of: B1; test: abundance fitness (aPCA) (normalised: wild type 0, dead -1); higher = more abundant; growth selection in yeast, the domain comes from the species named; settings: Homo sapiens
Answer as a number with no unit attached.

Requested read-out: abundance fitness. Entry: ITFYEDRAFQGRSYETTTDCPNLQPYFSRCNSIRVESGCWMLYERPNYQGQQYLLRRGEYPWYQQWMGLSDSIRSC [D62W]
0.059

Please answer likewise for TTFYEDRAFQGRSYETTTDCPNLQPYFSRCNSIRVESGCWMLYERPNYQGQQYLLRRGEYPDYQQWMGLSDSIRSC [I1T]
-0.722

Do the same for ITFYEDIAFQGRSYETTTDCPNLQPYFSRCNSIRVESGCWMLYERPNYQGQQYLLRRGEYPDYQQWMGLSDSIRSC [R7I] please
-0.141

What would you report for ITFYEDRAFQGRSYETTTDCPNLQPYFSRCNSIRGESGCWMLYERPNYQGQQYLLRRGEYPDYQQWMGLSDSIRSC [V35G] ?
-1.01

ITFYEDRAFQGRSYETTTDCPNLQPYLSRCNSIRVESGCWMLYERPNYQGQQYLLRRGEYPDYQQWMGLSDSIRSC [F27L] , same question.
-0.09

Further cases:
Recorded abundance fitness for ITFYEDRAFQGRSYETTTDCPNLQPYFSRCNSIRVESGCWMLYERPNYQGQQYLLRRGEYPDYQQWMGLSWSIRSC [D71W] , please?
-0.02

Query ITFYEDRAFQGRSYETTTDTPNLQPYFSRCNSIRVESGCWMLYERPNYQGQQYLLRRGEYPDYQQWMGLSDSIRSC [C20T] next
0.019

ITFVEDRAFQGRSYETTTDCPNLQPYFSRCNSIRVESGCWMLYERPNYQGQQYLLRRGEYPDYQQWMGLSDSIRSC [Y4V] , same question.
-1.11

Try the variant ITFYEDRAFQGRSYETTTDCPNLQPYFSRCNSIRVESGCWMLYERPNYQGQQYLVRRGEYPDYQQWMGLSDSIRSC [L55V]
-0.048

Then what about the variant ITFYEDRAFQGRSYETTTDCPNLQNYFSRCNSIRVESGCWMLYERPNYQGQQYLLRRGEYPDYQQWMGLSDSIRSC [P25N] ?
0.048

And the next one, ITFYEDRAFQGRSYETTTDCPNLQPYFSRCNSIRVESGCWMLYERPNYQGQQYLLRSGEYPDYQQWMGLSDSIRSC [R57S] ?
-0.039

Then ITFYEDRAFQGRSYETTTDCPNLQPYFSYCNSIRVESGCWMLYERPNYQGQQYLLRRGEYPDYQQWMGLSDSIRSC [R29Y] ?
0.024

Please do the same for ITFYEDRAFQGRSYETTTDCPNLQPYFSRCNSIRVESGCWMLYERPNYQGQQYLLRRGEYPDYQQWGGLSDSIRSC [M67G] as well.
-0.113
